# Target Under Test: DDR1 (Homo sapiens)
pIC50: −log10 of the molar value.
Reported pIC50 values are given for each entry in this list.

Worked set:
CN(C)[C@@H]1CCN(Cc2cc(NC(=O)c3csc4c3CCN(Cc3cnc5ccnn5c3)C4)cc(C(F)(F)F)c2)C1 = 7.30 to 7.60
O=C(Nc1cccc(C(F)(F)F)c1)c1csc2c1CCN(C(=O)c1cnc3[nH]ncc3c1)C2 = > 7.60
Cc1cn(-c2cc(NC(=O)c3csc4c3CCN(Cc3cnc5ccccn35)C4)cc(C(F)(F)F)c2)cn1 = 7.10 to 7.30
CC(F)(F)c1cncc(NC(=O)c2csc3c2CCN(C(=O)c2cnc4ccccn24)C3)c1 = 7.10 to 7.30

Exercise: Notebook entry, DDR1 (Homo sapiens) assay: pIC50 of Cn1nc(C(C)(C)C)cc1NC(=O)c1csc2c1CCN(Cc1cnc3[nH]ncc3c1)C2 = ?
Solution: > 7.60

Exercise: Notebook entry, DDR1 (Homo sapiens) assay: pIC50 of CN1CCN(Cc2cc(NC(=O)c3csc4c3CCN(C(=O)c3cnc5ccccn35)C4)cc(C(F)(F)F)c2)CC1 = ?
Solution: 7.30 to 7.60

Exercise: Notebook entry, DDR1 (Homo sapiens) assay: pIC50 of CC1c2scc(C(=O)Nc3cc(C(C)(C)C)nn3C)c2CCN1C(=O)c1cnc2ccccn12 (stereo not shown) = ?
Solution: 7.30 to 7.60

###

# Target Under Test: DDR1 (Homo sapiens, UniProt Q08345)
# Sequence (Q08345 19-913): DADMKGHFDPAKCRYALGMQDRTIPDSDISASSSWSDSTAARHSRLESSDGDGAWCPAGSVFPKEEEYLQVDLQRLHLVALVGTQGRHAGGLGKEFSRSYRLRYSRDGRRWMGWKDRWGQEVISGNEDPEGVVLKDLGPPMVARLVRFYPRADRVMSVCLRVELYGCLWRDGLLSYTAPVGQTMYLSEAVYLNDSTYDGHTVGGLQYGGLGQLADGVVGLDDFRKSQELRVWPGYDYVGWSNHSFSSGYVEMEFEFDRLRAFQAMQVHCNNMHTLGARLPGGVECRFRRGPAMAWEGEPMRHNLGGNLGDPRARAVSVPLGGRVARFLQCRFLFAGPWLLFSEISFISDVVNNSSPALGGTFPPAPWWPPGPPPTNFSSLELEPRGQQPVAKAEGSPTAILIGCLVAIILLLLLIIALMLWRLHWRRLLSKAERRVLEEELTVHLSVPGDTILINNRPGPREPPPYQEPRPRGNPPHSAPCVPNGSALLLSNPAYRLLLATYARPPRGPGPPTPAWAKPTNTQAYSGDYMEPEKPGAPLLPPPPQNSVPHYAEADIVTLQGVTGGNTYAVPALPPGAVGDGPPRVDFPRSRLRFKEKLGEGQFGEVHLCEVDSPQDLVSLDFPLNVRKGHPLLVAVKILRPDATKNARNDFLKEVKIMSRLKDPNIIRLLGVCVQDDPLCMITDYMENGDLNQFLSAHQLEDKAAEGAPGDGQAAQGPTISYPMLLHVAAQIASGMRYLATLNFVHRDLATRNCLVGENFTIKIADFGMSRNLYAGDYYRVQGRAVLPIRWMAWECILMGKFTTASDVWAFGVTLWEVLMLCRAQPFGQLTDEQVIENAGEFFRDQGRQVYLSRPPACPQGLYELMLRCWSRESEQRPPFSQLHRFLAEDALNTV
# Assay: DDR1 binding assay (LanthaScreen Europium Kinase Binding assay)
# Parameters: purchased Carna Biosciences
# Condition: binding assay, 5 nM DDR1, 20 nM Kinase Tracer 178; Ki from IC50 by Cheng-Prusoff; read-out: Ki DDR1
pKi: −log10 of the molar value.
Reported pKi values are given for each entry in this list.

CN(C)Cc1ccc(NC(=O)c2csc3c2CCN(C(=O)c2cnc4ccccn24)C3)cc1C(F)(F)F [Example 27] = > 7.60
CC(C)c1cc(NC(=O)c2csc3c2CCN(C(=O)c2cnc4ccccn24)C3)n(C)n1 [Example 36] = > 7.60
CC(C)(C)c1cc(NC(=O)c2csc3c2CCN(C(=O)c2cnc4ccccn24)C3)no1 [Example 33] = > 7.60

Exercise: Entry O=C(Nc1cc(OCCN2CCCC2)cc(C(F)(F)F)c1)c1csc2c1CCN(C(=O)c1cnc3ccccn13)C2 [Example 26] has what pKi?
Solution: > 7.60

Exercise: Entry O=C(Nc1ccc(CN2CCOCC2)c(C(F)(F)F)c1)c1csc2c1CCN(C(=O)c1cnc3ccccn13)C2 [Example 23] has what pKi?
Solution: > 7.60

Exercise: Entry O=C(Nc1cccc(C(F)(F)F)c1)c1csc2c1CCN(C(=O)c1cnn3ccncc13)C2 [Example 93] has what pKi?
Solution: > 7.60

Exercise: Entry CC(C)(C)c1cc(NC(=O)c2csc3c2CCN(C(=O)c2cnc4ccccn24)C3)n(-c2ccc(F)cc2)n1 [Example 5] has what pKi?
Solution: > 7.60

Exercise: Entry Cc1n[nH]c2ncc(CN3CCc4c(C(=O)Nc5cc(CN6CC[C@@H](N(C)C)C6)cc(C(F)(F)F)c5)csc4C3)cc12 [Example 157] has what pKi?
Solution: > 7.60

Exercise: Entry O=C(Nc1cncc(OC(F)(F)F)c1)c1csc2c1CCN(C(=O)c1cnn3ccncc13)C2 [Example 128] has what pKi?
Solution: > 7.60

Exercise: Entry COc1ncc(NC(=O)c2csc3c2CCN(C(=O)c2cnn4ccncc24)C3)cc1C(F)(F)F [Example 121] has what pKi?
Solution: > 7.60

###

The following compounds have recorded IC50 on DDR1 (Homo sapiens, UniProt Q08345).

CC(C)(C)c1cc(NC(=O)c2csc3c2CCN(C(=O)c2cnc4ccccn24)C3)ccn1 [Example 37] = 25 to 50 nM
Cc1cccc2ncc(C(=O)N3CCc4c(C(=O)Nc5cc(CN6CC[C@@H](N(C)C)C6)cc(C(F)(F)F)c5)csc4C3)n12 [Example 162] = 25 to 50 nM
CC1(C)c2scc(C(=O)Nc3cccc(C(F)(F)F)c3)c2CCN1C(=O)c1cnc2ccccn12 [Example 102] = < 25 nM
O=C(Nc1cncc(C(F)(F)F)c1)c1csc2c1CCN(C(=O)c1cnc3cnccn13)C2 [Example 127] = 25 to 50 nM

Exercise: Notebook entry, DDR1 (Homo sapiens, UniProt Q08345) assay: IC50 of O=C(Nc1ccc(OC2COC2)c(C(F)(F)F)c1)c1csc2c1CCN(C(=O)c1cnc3ccccn13)C2 [Example 13] = ?
Solution: < 25 nM

Exercise: Notebook entry, DDR1 (Homo sapiens, UniProt Q08345) assay: IC50 of CC(C)(C)c1cncc(NC(=O)c2csc3c2CCN(C(=O)c2cnn4ccncc24)C3)c1 [Example 123] = ?
Solution: 50 to 80 nM

###

# Target Under Test: DDR1 (Homo sapiens, UniProt Q08345)
Reported IC50 values are given for each entry in this list.

Worked set:
CCC(C)(C)c1cc(NC(=O)c2csc3c2CCN(C(=O)c2cnc4ccccn24)C3)on1 = 25 to 50 nM
O=C(Nc1cc(CO)cc(C(F)(F)F)c1)c1csc2c1CCN(C(=O)c1cnn3ccncc13)C2 = < 25 nM
Cn1nc(C(C)(C)C)cc1NC(=O)c1csc2c1CCN(C(=O)c1cnc3ccccn13)C2 = < 25 nM

Pending molecule:
Exercise: Notebook entry, DDR1 (Homo sapiens, UniProt Q08345) assay: IC50 of CC(C)(C)c1cc(NC(=O)c2csc3c2CCN(C(=O)c2cnc4ccccn24)C3)n(Cc2ccccc2)n1 = ?
Solution: 25 to 50 nM

###

The following compounds have recorded IC50 on DDR1 (Homo sapiens, UniProt Q08345).

Worked set:
O=C(Nc1ccc(CO)c(C(F)(F)F)c1)c1csc2c1CCN(C(=O)c1cnn3ccncc13)C2 = 25 to 50 nM
CN(C)Cc1ccc(NC(=O)c2csc3c2CCN(C(=O)c2cnn4ccncc24)C3)cc1C(F)(F)F = 50 to 80 nM
O=C(Nc1cncc(C(F)(F)F)c1)c1csc2c1CCN(C(=O)c1cnn3cccnc13)C2 = 25 to 50 nM
O=C(Nc1ccnc(C(F)(F)F)c1)c1csc2c1CCN(C(=O)c1cnc3ccccn13)C2 = 25 to 50 nM
CC(=O)N1CCN(Cc2cc(NC(=O)c3csc4c3CCN(C(=O)c3cnc5ccccn35)C4)cc(C(F)(F)F)c2)CC1 = 25 to 50 nM
O=C(Nc1cccc(OC(F)(F)F)c1)c1csc2c1CCN(Cc1cnc3[nH]ncc3c1)C2 = < 25 nM

Exercise: Entry CN(C)[C@@H]1CCN(Cc2cc(NC(=O)c3csc4c3CCN(Cc3cnc5cnccn35)C4)cc(C(F)(F)F)c2)C1 has what IC50?
Solution: 50 to 80 nM

###

Reported Ki values are given for each entry in this list.
# Target Under Test: DDR1 (Homo sapiens, UniProt Q08345)
# Assay: DDR1 binding assay (LanthaScreen Europium Kinase Binding assay)
# Set-up: purchased Carna Biosciences
# Condition: binding assay, 5 nM DDR1, 20 nM Kinase Tracer 178; Ki from IC50 by Cheng-Prusoff; read-out: Ki DDR1

Worked set:
O=C(Nc1cc(F)cc(C(F)(F)F)c1)c1csc2c1CCN(C(=O)c1cnc3ccccn13)C2 [Example 46] = < 25 nM
O=C(Nc1ccc(Cl)c(C(F)(F)F)c1)c1csc2c1CCN(C(=O)c1cnn3ccncc13)C2 [Example 176] = < 25 nM
O=C(Nc1cncc(C(F)(F)F)c1)c1csc2c1CCN(C(=O)c1cnn3ccncc13)C2 [Example 108] = < 25 nM
O=C(Nc1cncc(C(F)(F)F)c1)c1csc2c1CCN(C(=O)c1cnc3n1CCOC3)C2 [Example 110] = < 25 nM

Exercise: Entry O=C(Nc1cc(CN2CCC23COC3)cc(C(F)(F)F)c1)c1csc2c1CCN(C(=O)c1cnc3ccccn13)C2 [Example 49] has what Ki?
Solution: < 25 nM

Exercise: Entry CC(C)(C)c1cc(NC(=O)c2csc3c2CCN(C(=O)c2cnc4ccccn24)C3)on1 [Example 34] has what Ki?
Solution: < 25 nM

Exercise: Entry Cc1n[nH]c2ncc(CN3CCc4c(C(=O)Nc5cc(C6CC6)on5)csc4C3)cc12 [Example 148] has what Ki?
Solution: < 25 nM

Exercise: Entry O=C(Nc1cc(F)cc(OC(F)(F)F)c1)c1csc2c1CCN(Cc1cnc3[nH]ncc3c1)C2 [Example 174] has what Ki?
Solution: < 25 nM

###

Reported pIC50 values are given for each entry in this list.
# Target Under Test: DDR1 (Homo sapiens)
pIC50: −log10 of the molar value.

Worked set:
CN1CCN(Cc2cc(NC(=O)c3csc4c3CCN(C(=O)c3cnc5ccccn35)C4)cc(C(F)(F)F)c2)CC1=O [Example 59] = 7.30 to 7.60
CN(C)Cc1cc(NC(=O)c2csc3c2CCN(C(=O)c2cnc4ccccn24)C3)cc(C(F)(F)F)c1 [Example 19] = > 7.60
Cc1ccc2ncc(C(=O)N3CCc4c(C(=O)Nc5cc(C(C)(C)C)nn5C)csc4C3)n2c1 [Example 80] = 7.30 to 7.60
CC1Cc2c(C(=O)Nc3cccc(C(F)(F)F)c3)csc2CN1Cc1cnc2cnccn12 (single isomer, unassigned) [Example 104] = > 7.60

Exercise: Notebook entry, DDR1 (Homo sapiens) assay: pIC50 of O=C(Nc1cccc(OC(F)(F)F)c1)c1csc2c1CCN(Cc1cnc3[nH]ccc3c1)C2 [Example 72] = ?
Solution: > 7.60

Exercise: Notebook entry, DDR1 (Homo sapiens) assay: pIC50 of Cc1cn(-c2cc(NC(=O)c3csc4c3CCN(C(=O)c3cnc5ccccn35)[C@@H]4C)cc(C(F)(F)F)c2)cn1 [Example 101] = ?
Solution: > 7.60

Exercise: Notebook entry, DDR1 (Homo sapiens) assay: pIC50 of CC(C)(C)c1cc(NC(=O)c2csc3c2CCN(Cc2cnc4[nH]ncc4c2)C3)on1 [Example 133] = ?
Solution: > 7.60
